# subject of test: Estrogen receptor (Homo sapiens, UniProt P03372)
# Sequence (P03372 whole entry): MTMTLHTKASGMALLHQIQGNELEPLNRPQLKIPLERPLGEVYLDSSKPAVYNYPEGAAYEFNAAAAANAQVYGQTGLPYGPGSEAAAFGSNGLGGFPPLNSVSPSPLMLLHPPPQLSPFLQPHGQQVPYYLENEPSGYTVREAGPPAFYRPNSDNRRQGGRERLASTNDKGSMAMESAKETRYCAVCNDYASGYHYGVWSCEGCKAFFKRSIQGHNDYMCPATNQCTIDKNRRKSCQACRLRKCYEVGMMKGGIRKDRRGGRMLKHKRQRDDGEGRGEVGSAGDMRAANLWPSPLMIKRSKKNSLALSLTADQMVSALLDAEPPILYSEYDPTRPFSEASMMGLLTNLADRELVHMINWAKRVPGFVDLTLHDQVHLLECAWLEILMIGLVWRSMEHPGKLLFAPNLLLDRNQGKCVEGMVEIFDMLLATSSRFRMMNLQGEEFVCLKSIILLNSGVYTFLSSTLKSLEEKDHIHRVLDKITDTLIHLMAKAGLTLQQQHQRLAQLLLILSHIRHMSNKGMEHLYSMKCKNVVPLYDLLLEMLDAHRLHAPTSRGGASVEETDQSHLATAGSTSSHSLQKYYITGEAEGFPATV
# method notes: Displacement of radiolabeled estrogen from estrogen receptor alpha by scintillation counting
recorded metric: pIC50
Note on units: pIC50 is unitless, being -log10 of a concentration expressed in mol/L.

Field request: pIC50 | item: Oc1ccc2c(c1)O[C@H](c1ccc(OCCN3CCCCC3)cc1)C1=C2CCOc2cc(O)ccc21
8.96

Field request: pIC50 | item: OCCOc1ccc(C2Oc3cc(O)ccc3C3=C2c2ccc(O)cc2OCC3)cc1 (centres undefined)
6.51

Field request: pIC50 | item: OCCCOc1ccc(C2Oc3cc(O)ccc3C3=C2c2ccc(O)cc2OCC3)cc1 (centres undefined)
6.49

Field request: pIC50 | item: COc1ccc2c(c1)O[C@@H](c1ccc(OCCN3CCCCC3)cc1)C1=C2CCOc2cc(O)ccc21
8.20

Field request: pIC50 | item: Oc1ccc2c(c1)OCCC1=C2[C@H](c2ccc(OCCN3CCCCC3)cc2)Oc2ccccc21
8.38

Field request: pIC50 | item: CCN(CC)CCOc1ccc([C@H]2Oc3cc(F)ccc3C3=C2c2ccc(O)cc2OCC3)cc1
8.30

Field request: pIC50 | item: COC(=O)COc1ccc(C2Oc3cc(O)ccc3C3=C2c2ccc(O)cc2OCC3)cc1 (centres undefined)
8.32

Field request: pIC50 | item: Oc1ccc2c(c1)OCCC1=C2[C@H](c2ccc(OCCN3CCCCCC3)cc2)Oc2cc(F)ccc21
8.30

====

# subject of test: Estrogen receptor beta (Homo sapiens)
# Sequence (Q92731 whole entry): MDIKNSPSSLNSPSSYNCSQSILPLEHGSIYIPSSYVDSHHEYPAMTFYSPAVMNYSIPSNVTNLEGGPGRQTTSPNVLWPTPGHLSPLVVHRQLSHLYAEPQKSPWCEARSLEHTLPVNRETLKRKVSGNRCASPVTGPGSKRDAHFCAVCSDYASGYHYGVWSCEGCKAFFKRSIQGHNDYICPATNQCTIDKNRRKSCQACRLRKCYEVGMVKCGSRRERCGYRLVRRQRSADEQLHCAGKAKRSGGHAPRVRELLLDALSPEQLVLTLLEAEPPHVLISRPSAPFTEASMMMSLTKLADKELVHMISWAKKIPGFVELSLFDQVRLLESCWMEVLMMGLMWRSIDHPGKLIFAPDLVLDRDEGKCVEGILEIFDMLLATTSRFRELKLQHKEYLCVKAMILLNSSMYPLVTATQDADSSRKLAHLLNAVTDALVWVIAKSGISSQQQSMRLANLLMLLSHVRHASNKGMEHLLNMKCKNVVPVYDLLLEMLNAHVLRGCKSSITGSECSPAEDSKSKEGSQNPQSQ
# method notes: Inhibition of fluormone ES2 binding to estrogen receptor beta after 1 hr by fluorescence polarization assay
Please go through the items and note down their IC50.

Field request: IC50 | item: CN(C)CCOc1ccc([C@H]2Oc3ccccc3C3=C2c2ccc(O)cc2OCC3)cc1
105 nM

Field request: IC50 | item: Oc1ccc2c(c1)OC(c1ccc(OCCN3CCCCC3)cc1)C1=C2CCOc2cc(O)ccc21 (stereo unspecified)
31 nM

Field request: IC50 | item: Oc1ccc2c(c1)O[C@H](c1cccc(OCCN3CCSCC3)c1)C1=C2CCOc2cc(O)ccc21
> 1000 nM

Field request: IC50 | item: Oc1ccc2c(c1)O[C@@H](c1ccc(OCCCN3CCCCC3)cc1)C1=C2CCOc2cc(O)ccc21
19 nM

Field request: IC50 | item: Oc1ccc2c(c1)O[C@@H](c1cccc(OCCN3CCSCC3)c1)C1=C2CCOc2cc(O)ccc21
> 1000 nM

Field request: IC50 | item: CN(C)CCOc1ccc([C@@H]2Oc3ccccc3C3=C2c2ccc(O)cc2OCC3)cc1
23 nM

The measured values listed here are drawn from ChEMBL document CHEMBL1153760.
